Biological target: rat α3β4 nAChR (Rattus norvegicus, UniProt P04757+P12392)
Construct: expressed in transfected cells; host or cells: HEK293 (rα3β4-HEK293, kept under G-416 selection)
Sequence (P04757 26-499): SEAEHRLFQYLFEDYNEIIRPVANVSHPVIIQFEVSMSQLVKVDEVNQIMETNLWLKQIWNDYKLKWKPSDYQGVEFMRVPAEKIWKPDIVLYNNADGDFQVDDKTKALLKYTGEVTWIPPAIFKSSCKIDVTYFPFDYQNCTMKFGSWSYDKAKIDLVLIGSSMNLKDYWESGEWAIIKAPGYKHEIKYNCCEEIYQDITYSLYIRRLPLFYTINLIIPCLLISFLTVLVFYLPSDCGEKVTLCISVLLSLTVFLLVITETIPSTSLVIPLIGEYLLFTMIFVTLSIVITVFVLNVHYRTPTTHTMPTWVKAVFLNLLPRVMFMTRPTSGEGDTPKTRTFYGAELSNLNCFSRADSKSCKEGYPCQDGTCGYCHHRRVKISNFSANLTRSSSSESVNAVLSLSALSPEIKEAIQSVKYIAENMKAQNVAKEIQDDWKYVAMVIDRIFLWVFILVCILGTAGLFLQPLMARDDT
Sequence (P12392 21-495): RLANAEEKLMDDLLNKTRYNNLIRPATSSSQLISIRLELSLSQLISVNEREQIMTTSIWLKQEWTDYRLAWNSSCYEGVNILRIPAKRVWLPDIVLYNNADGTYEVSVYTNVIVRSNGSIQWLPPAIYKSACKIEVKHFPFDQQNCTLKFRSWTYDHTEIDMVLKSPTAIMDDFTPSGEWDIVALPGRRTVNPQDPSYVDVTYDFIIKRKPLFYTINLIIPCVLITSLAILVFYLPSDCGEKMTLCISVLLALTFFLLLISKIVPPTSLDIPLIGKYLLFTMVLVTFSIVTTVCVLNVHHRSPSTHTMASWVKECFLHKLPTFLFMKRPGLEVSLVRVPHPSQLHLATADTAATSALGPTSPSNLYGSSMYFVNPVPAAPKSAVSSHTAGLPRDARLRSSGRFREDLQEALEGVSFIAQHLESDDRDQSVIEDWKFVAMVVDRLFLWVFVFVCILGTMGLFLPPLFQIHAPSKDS
Assay: Calcium influx assay (dual agonist/antagonist, FLIPR calcium 6) in HEK293 cells expressing rat α3β4 nAChR
Format: cell-based
Conditions: α3β4 nAChR IC50, Table 4; R1 and R2 methyl, R3 NH unless otherwise indicated
pIC50: −log10 of the molar value.

| Compound | pIC50 |
| --- | --- |
| CC1=CCC2CC1C(c1ccc(F)c(C(F)(F)F)c1)OC2(C)C (stereo not shown) [drawing 115] | < 3.70 |

The values you see were collected from patent US20240246970A1.
